assay: Plasma protein binding in rhesus monkey; assay type: ADME, cell-free, Macaca mulatta; conditions: read-out: PPB
property_label: fraction unbound

I would be grateful if you could share the reported fraction unbound for O=C(CSc1nnc(Br)n1-c1ccc(C2CC2)c2ccccc12)Nc1ccc(C(=O)O)cc1Cl .
< 0.01

* * *

assay: Cmax in fasted human plasma at 400 mg, po every 12 hrs measured on day 8; type: ADME, organism-based; set-up: dose 400 mg, route oral
property_label: Cmax (ng/mL)
Provide only the numeric value, understood in ng/mL.

Could you tell me which Cmax is on file for O=C(CSc1nnc(Br)n1-c1ccc(C2CC2)c2ccccc12)Nc1ccc(C(=O)O)cc1Cl ?
2990

src = ChEMBL document CHEMBL1629701
